These measurements were taken from patent US20080081041A1.

System: DU145 cells
experimental-details: DU145 cell killing, ATPlite assay (ATP production)
Type: cell-based, human
assay-conditions: Homo sapiens, DU-145, read-out: EC50 values for killing by Mitoxantrone; DU145 cells, 72 Hours; CNTO 328 at 20 μg/mL where combined

| structure-smiles-string | unit-label | EC50 |
| --- | --- | --- |
| O=C1c2c(O)ccc(O)c2C(=O)c2c(NCCNCCO)ccc(NCCNCCO)c21 | nM | 10.8 |
